B1: scFv; the commonest letter at each place (parent)
chain 1: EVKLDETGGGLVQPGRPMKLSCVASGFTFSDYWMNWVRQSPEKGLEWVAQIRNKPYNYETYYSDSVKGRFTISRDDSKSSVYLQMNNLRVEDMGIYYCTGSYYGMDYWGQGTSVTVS
chain 2: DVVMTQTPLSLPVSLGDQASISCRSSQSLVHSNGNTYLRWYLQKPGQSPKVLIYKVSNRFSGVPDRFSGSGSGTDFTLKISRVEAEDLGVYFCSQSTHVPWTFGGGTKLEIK

# Variants of: B1
# TEST NAME: yeast surface expression (ratio to wild type); higher = more expressed
# SETUP CONDITIONS: format: scFv 4-4-20, heavy + light
RECORDED METRIC: yeast surface expression

{"columns": ["VARIANT ANNOTATION", "ENDPOINT VALUE"],
 "data": [
  ["chain 1 Y103P", 0.791],
  ["chain 1 Y102F", 0.776],
  ["chain 1 G100L S101K", 0.461],
  ["chain 1 G100W S101P", 0.197],
  ["chain 1 Y32T V37G", 1.64],
  ["chain 1 T28A N35Y W36V", 0.297],
  ["chain 1 G104I Y107N", 0.247],
  ["chain 1 G100R Y107P W108D", 0.43],
  ["chain 1 G104Y W108L", 0.212],
  ["chain 1 D31L Y32A", 0.73],
  ["chain 1 G100A S101L", 0.553],
  ["chain 1 T28H D31K", 0.589],
  ["chain 1 D31T W33E", 0.544],
  ["chain 1 Y32G W33A", 0.708],
  ["chain 1 Y32P W36K", 0.563]
]}
